test.description: Plitidepsin whole blood pharmacokinetics, non-compartmental
Format: in vivo
measurement.parameters: human, iv, Dose level 2 4.0/1.3/40.0, Day 1 of Cycle 1, NCA, mean (SD), n = 3, read-out: CL (total clearance) (converted)
Numbered stars: 1 amine (or outer) side, 2 acyl side, 3 side chain; on linkers, the order of the positions; unused ones are H or OH. Bridge positions count the residues as written; N and C are the ends. Square brackets hold non-standard residues; d marks the D form. Peptide text beside a SMILES is read from it. * marks the point of attachment. X1 = CC[C@H](C)[C@@H](N[*:1])[C@@H](O)CC(=O)O[C@H](C(=O)[C@H](C)C(=O)[*:2])C(C)C; NMeY = CN[C@@H](Cc1ccc(O)cc1)C(=O)O; dNMeL = CN[C@H](CC(C)C)C(=O)O; Pyruvoyl = CC(=O)C(=O)*
experimental.readout: clearance (mL/min)
Just the number in mL/min, nothing appended.

Which value of clearance has been reported for CC[C@H](C)[C@H]1NC(=O)[C@@H](NC(=O)[C@@H](CC(C)C)N(C)C(=O)[C@@H]2CCCN2C(=O)C(C)=O)[C@@H](C)OC(=O)[C@H](Cc2ccc(OC)cc2)N(C)C(=O)[C@@H]2CCCN2C(=O)[C@H](CC(C)C)NC(=O)[C@@H](C)C(=O)[C@H](C(C)C)OC(=O)C[C@@H]1O [Plitidepsin, plitidepsin] (Pyruvoyl-P[dNMeL]T[X1]LP[NMeY](Me); ester 3-C (inferred); N-terminus assumed) in the records? 93.2

###

test.description: Plitidepsin whole blood pharmacokinetics, non-compartmental
Assay type: in vivo
measurement.parameters: human, iv, Dose level 2 4.0/1.3/40.0, Day 1 of Cycle 1, NCA, mean (SD), n = 3, read-out: V ss (volume of distribution at steady-state)
Description: Sixteen samples were collected from each patient to quantify plitidepsin whole blood and BTZ plasma concentrations at baseline and at different times 1 week after the first infusion. In patients treated at the RD, 15 additional samples were taken 1 week after the second plitidepsin infusion. Continuous variables were presented with summary statistics and categorical variables in frequency tables. Time‐to‐event variables were calculated using Kaplan–Meier approach. […]
Numbered stars: 1 amine (or outer) side, 2 acyl side, 3 side chain; on linkers, the order of the positions; unused ones are H or OH. Bridge positions count the residues as written; N and C are the ends. Square brackets hold non-standard residues; d marks the D form. Peptide text beside a SMILES is read from it. * marks the point of attachment. X1 = CC[C@H](C)[C@@H](N[*:1])[C@@H](O)CC(=O)O[C@H](C(=O)[C@H](C)C(=O)[*:2])C(C)C; NMeY = CN[C@@H](Cc1ccc(O)cc1)C(=O)O; dNMeL = CN[C@H](CC(C)C)C(=O)O; Pyruvoyl = CC(=O)C(=O)*
experimental.readout: Vd (L)
Reply numerically in L, unit not repeated.

Give the measured Vd of CC[C@H](C)[C@H]1NC(=O)[C@@H](NC(=O)[C@@H](CC(C)C)N(C)C(=O)[C@@H]2CCCN2C(=O)C(C)=O)[C@@H](C)OC(=O)[C@H](Cc2ccc(OC)cc2)N(C)C(=O)[C@@H]2CCCN2C(=O)[C@H](CC(C)C)NC(=O)[C@@H](C)C(=O)[C@H](C(C)C)OC(=O)C[C@@H]1O [Plitidepsin, plitidepsin] (Pyruvoyl-P[dNMeL]T[X1]LP[NMeY](Me); ester 3-C (inferred); N-terminus assumed) . 192
